All values here come from paper PMC9217908.

target: CAT1 (cationic amino acid transporter 1, CAT1/SLC7A1) (Homo sapiens); construct: full-length human transporter stably transfected in HEK cells (HEK-CAT1); net uptake against HEK-VC vector control cells; assay: cell-based; design: species or system HEK-CAT1 (HEK293 stably transfected); Inhibition of net CAT1-mediated [3H]-L-homoarginine (1 uM) uptake, 2.5 min, scintillation counting, vector control subtracted; settings: HEK293; L-homoarginine 1 uM as substrate; read-out: % Inhibition of L-homoarginine uptake at 200 µM
Below, each entry is listed with its recorded inhibition at 200 µM.
State just the number; it will be interpreted in %.

The following molecules have reported results that may help.
>>> test_result("CC(CN(C)C)CN1c2ccccc2CCc2ccccc21 (stereo not shown) [Trimipramine]")
34.1
>>> test_result("CC#C[C@]1(O)CC[C@H]2[C@@H]3CCC4=CC(=O)CCC4=C3[C@@H](c3ccc(N(C)C)cc3)C[C@@]21C [Mifepristone]")
-15
>>> test_result("Cc1nnc2n1-c1ccc(Cl)cc1C(c1ccccc1)=NC2 [Alprazolam]")
9.6

// switching to the query molecule
Asked: // query inhibition at 200 µM value for entry O[C@@H](CNC[C@H](O)[C@H]1CCc2cc(F)ccc2O1)[C@@H]1CCc2cc(F)ccc2O1 (racemic) [Nebivolol]
Given back: 0.3

* * *

Target: CAT1 (cationic amino acid transporter 1, CAT1/SLC7A1) (Homo sapiens, UniProt P30825)
Construct: full-length human transporter stably transfected in HEK cells (HEK-CAT1); net uptake against HEK-VC vector control cells
Sequence (P30825 whole entry): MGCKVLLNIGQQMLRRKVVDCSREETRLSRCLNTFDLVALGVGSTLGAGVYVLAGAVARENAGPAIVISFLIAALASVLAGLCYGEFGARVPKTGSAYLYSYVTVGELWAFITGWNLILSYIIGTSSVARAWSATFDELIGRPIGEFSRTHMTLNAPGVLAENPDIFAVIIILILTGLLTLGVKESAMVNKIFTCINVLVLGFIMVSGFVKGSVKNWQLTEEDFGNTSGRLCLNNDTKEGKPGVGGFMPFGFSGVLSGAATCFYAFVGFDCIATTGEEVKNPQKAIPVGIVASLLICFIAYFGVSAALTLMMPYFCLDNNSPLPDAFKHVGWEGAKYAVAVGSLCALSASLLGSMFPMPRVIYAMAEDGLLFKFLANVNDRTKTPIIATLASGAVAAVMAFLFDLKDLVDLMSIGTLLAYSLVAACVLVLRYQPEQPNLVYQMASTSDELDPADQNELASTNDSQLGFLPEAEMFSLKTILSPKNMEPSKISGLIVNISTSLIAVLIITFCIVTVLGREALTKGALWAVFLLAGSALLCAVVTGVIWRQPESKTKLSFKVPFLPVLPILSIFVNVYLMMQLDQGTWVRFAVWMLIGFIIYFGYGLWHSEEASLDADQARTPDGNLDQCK
Assay: cell-based
Design: species or system HEK-CAT1 (HEK293 stably transfected); Inhibition of net CAT1-mediated [3H]-L-arginine (100 uM) uptake, 5 min, scintillation counting, vector control subtracted
Settings: HEK293; L-arginine 100 uM as substrate; read-out: % Inhibition of L-arginine uptake at 200 µM
Method: Uptake and inhibition assays using HEK-CAT1 and HEK-VC cells and L-arginine, L-homoarginine, and ADMA as substrates were performed using the protocol described (Strobel et al. [2012]; Chafai et al. [2017]). […] The net uptake was determined by subtracting the total amount taken up by control cells from the amount taken up by CAT1-expressing cells, which was expressed as a percentage of the amount taken up by the control. […]
Below, each entry is listed with its recorded inhibition at 200 µM.
# do not omit the unit; it follows the number

The following compounds have reported results that may help.
>>> test_result("CC[C@H]1OC(=O)[C@H](C)[C@@H](O[C@H]2C[C@@](C)(OC)[C@@H](O)[C@H](C)O2)[C@H](C)[C@@H](O[C@@H]2O[C@H](C)C[C@H](N(C)C)[C@H]2O)[C@](C)(OC)C[C@@H](C)C(=O)[C@H](C)[C@@H](O)[C@]1(C)O")
"-14.3%"
>>> test_result("CCCN(CCC)S(=O)(=O)c1ccc(C(=O)O)cc1")
"0.4%"

Asked: // query inhibition at 200 µM value for entry CN1CCOC(c2ccccc2)c2ccccc2C1 (stereo not drawn)
Given back: -13.9%

* * *

biological target: CAT1 (cationic amino acid transporter 1, CAT1/SLC7A1) (Homo sapiens); construct: full-length human transporter stably transfected in HEK cells (HEK-CAT1); net uptake against HEK-VC vector control cells; experiment: cell-based; design: species or system HEK-CAT1 (HEK293 stably transfected); Inhibition of net CAT1-mediated [3H]-L-arginine (100 uM) uptake, 5 min, scintillation counting, vector control subtracted; conditions: HEK293; L-arginine 100 uM as substrate; read-out: % Inhibition of L-arginine uptake at 20 µM
Below, each entry is listed with its recorded inhibition at 20 µM.
State just the number; it will be interpreted in %.

>>> test_result("CN(Cc1cnc2nc(N)nc(N)c2n1)c1ccc(C(=O)N[C@@H](CCC(=O)O)C(=O)O)cc1 [Methotrexate]")
22.3
>>> test_result("C[C@H](CS)C(=O)N1CCC[C@H]1C(=O)O")
0.6

// switching to the query compound
Asked: // query inhibition at 20 µM value for entry CC[C@H]1OC(=O)[C@H](C)[C@@H](O[C@H]2C[C@@](C)(OC)[C@@H](O)[C@H](C)O2)[C@H](C)[C@@H](O[C@@H]2O[C@H](C)C[C@H](N(C)C)[C@H]2O)[C@](C)(O)C[C@@H](C)CN(C)[C@H](C)[C@@H](O)[C@]1(C)O
Given back: 7
